The reported numbers originate from patent US20070004763A1.

I'd be grateful if you could share measured IC50 for these entries.
Numbers only here, please. The scale is µM.

Ask: Give recorded IC50 with UniProt Q16620 for the following compound: CC(C)Oc1ccc(NC(=O)OC2CCN(c3ccnc4ccccc34)C2)cc1 (stereo not drawn) [Compound 39]
Sequence (Q16620 526-822 limits assumed): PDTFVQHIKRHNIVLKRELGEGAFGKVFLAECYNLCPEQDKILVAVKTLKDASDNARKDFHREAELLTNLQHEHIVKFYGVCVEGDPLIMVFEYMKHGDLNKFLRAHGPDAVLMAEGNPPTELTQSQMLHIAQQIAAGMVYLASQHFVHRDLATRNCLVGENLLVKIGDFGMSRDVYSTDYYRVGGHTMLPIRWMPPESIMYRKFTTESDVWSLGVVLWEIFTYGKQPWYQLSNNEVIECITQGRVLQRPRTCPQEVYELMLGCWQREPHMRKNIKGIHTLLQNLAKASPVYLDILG
Reply: 9.1

Ask: Give recorded IC50 with UniProt Q16620 for the following compound: COc1cc2ncnc(N3CCC(CNC(=O)Nc4ccc(C(C)C)cc4)CC3)c2cc1OC [Compound 18]
Reply: 0.5

Ask: Give recorded IC50 with UniProt Q16620 for the following compound: COc1cc2ncnc(N3CCC(COC(=O)Nc4ccc(OC5CCCC5)cc4)CC3)c2cc1OC [Compound 56]
Reply: 6.58

Ask: Give recorded IC50 with UniProt Q16620 for the following compound: CC(C)c1ccc(NC(=O)OC2CCN(c3ncnc4ccc(I)cc34)C2)cc1 (stereo not drawn) [Compound 20]
Reply: 13.1

Ask: Give recorded IC50 with UniProt Q16620 for the following compound: COc1cc2ncnc(N3CCC(CC(=O)Nc4ccc(C(C)C)cc4)C3)c2cc1OC (stereo not drawn) [Compound 6]
Reply: 0.1

Ask: Give recorded IC50 with UniProt Q16620 for the following compound: CC(C)c1ccc(NC(=O)NC2CCN(c3ccnc4ccccc34)C2)cc1 (stereo not drawn) [Compound 27]
Reply: 7.7

Ask: Give recorded IC50 with UniProt Q16620 for the following compound: COc1cc2ncnc(N3CCC(OC(=O)Nc4ccc(OC5CCCC5)cc4)C3)c2cc1OC (stereo not drawn) [Compound 54]
Reply: 44.6

Ask: Give recorded IC50 with UniProt Q16620 for the following compound: COc1cc2ncnc(N3CCC(NC(=O)Nc4ccc(N5CCCC5)cc4)C3)c2cc1OC (stereo not drawn) [Compound 49]
Reply: 3.88

Ask: Give recorded IC50 with UniProt Q16620 for the following compound: COc1cc2ncnc(N3CCCCC3COC(=O)Nc3ccc(C(C)C)cc3)c2cc1OC (stereo not drawn) [Compound 33]
Reply: 5

Ask: Give recorded IC50 with UniProt Q16620 for the following compound: COc1cc2ncnc(N3CCC(NC(=O)Nc4ccc(N(C)C)cc4)C3)c2cc1OC (stereo not drawn) [Compound 52]
Reply: 22.7

Ask: Give recorded IC50 with UniProt Q16620 for the following compound: COc1cc2ncnc(N3CCC(NC(=O)Nc4ccc(N5CCCC5)nc4)C3)c2cc1OC (stereo not drawn) [Compound 46]
Reply: 24.8

Ask: Give recorded IC50 with UniProt Q16620 for the following compound: COc1cc2ncnc(N3CCCC3COC(=O)Nc3ccc(C(C)C)cc3)c2cc1OC (stereo not drawn) [Compound 9]
Reply: 0.2

Ask: Give recorded IC50 with UniProt Q16620 for the following compound: CC(C)Oc1ccc(NC(=O)NC2CCN(c3ccnc4ccccc34)C2)cc1 (stereo not drawn) [Compound 38]
Reply: 26.8

Ask: Give recorded IC50 with UniProt Q16620 for the following compound: COc1cc2ncnc(N3CCC(OC(=O)Nc4ccc(C(C)C)cc4)C3)c2cc1OC (stereo not drawn) [Compound 2]
Reply: 3.7

Ask: Give recorded IC50 with UniProt Q16620 for the following compound: COc1cc2ncc(C#N)c(N3CCC(OC(=O)Nc4ccc(OC(C)C)cc4)CC3)c2cc1OC [Compound 40]
Reply: 11.8

Ask: Give recorded IC50 with UniProt Q16620 for the following compound: COc1cc2ncnc(N3CCC(NC(=O)Cc4ccc(C(C)C)cc4)C3)c2cc1OC (stereo not drawn) [Compound 35]
Reply: 6.5

Ask: Give recorded IC50 with UniProt Q16620 for the following compound: COc1cc2ncnc(N3CCCC(OC(=O)Nc4ccc(C(C)C)cc4)C3)c2cc1OC (stereo not drawn) [Compound 31]
Reply: 0.2
